- method.description: Quantitative High-Throughput drug screen in 47 multiple myeloma cell lines against the NCATS MIPE library collection: KMS34_JCRB cell viability assay (AID 1918985); also: nearly all actives have a fitted effect of over 40% in size; also: potency is read from the fitted curve at half-maximal effect
- experimental.context: KMS34 myeloma viability, CellTiter-Glo ATP luminescence, 48 h; series mostly up to 45.8 µM
Inconclusive results are not listed. Calls of active or inactive are those of the source. Calls follow the shape of the dose curve; as a rule, active = well fitted cell-killing curve with a large enough effect; inconclusive = small, poorly fitted or top-dose-only effect, or effect the other way; inactive = no such curve, though single readings can be large or run the other way.
quantity: Potency

molecule	Potency
CCCc1nc(C)c2c(=O)[nH]c(-c3cc(S(=O)(=O)N4CCN(CC)CC4)ccc3OCC)nn12	3.72 µM (active)
Nc1ccc(S(=O)(=O)Nc2ccccn2)cc1	inactive
CN(C)CCc1c[nH]c2ccc(C[C@H]3COC(=O)N3)cc12	inactive
N=C(N)c1ccc(OCCCCCOc2ccc(C(=N)N)cc2)cc1	20.9 µM (active)
O=C(NCC1CN(c2ccc(N3CCOCC3=O)cc2)C(=O)O1)c1ccc(Cl)s1 (configuration not stated)	inactive
Cn1c(=O)c2c(ncn2CC(O)CO)n(C)c1=O (configuration not stated)	inactive
CC(C)(Sc1cc(C(C)(C)C)c(O)c(C(C)(C)C)c1)Sc1cc(C(C)(C)C)c(O)c(C(C)(C)C)c1	inactive
NC1(c2ccc(-c3nc4ccn5c(=O)[nH]nc5c4cc3-c3ccccc3)cc2)CCC1	9.35 µM (active)

Value lookup for Potency; key = CO[C@@H]1[C@@H](OC(N)=O)[C@@H](O)[C@H](Oc2ccc3c(O)c(NC(=O)c4ccc(O)c(CC=C(C)C)c4)c(=O)oc3c2C)OC1(C)C
1.48 µM (active)

Value lookup for Potency; key = CCCc1cc(C(N)=S)ccn1
inactive
